# Tested on: johnsongrass (Sorghum halepense)
# assay notes: Test D pre-/postemergence plant response
# Assay type: in vivo
# stated conditions: Postemergence, 31 g ai/ha; scale 0 to 100 (0 no effect, 100 complete control)
# key: entry, value: Johnsongrass plant response rating
measured endpoint: Johnsongrass plant response rating

molecule: Fc1cccc(Oc2ncc(Cl)cn2)c1-c1cc(C2CC2)on1 [Compound 130]
measured on: johnsongrass (Sorghum halepense)
measured endpoint: Johnsongrass plant response rating
reading: 5

molecule: Fc1ccc(Oc2ncc(Cl)cn2)c(-c2cc(C(F)(Cl)Cl)on2)c1 [Compound 221]
measured on: johnsongrass (Sorghum halepense)
measured endpoint: Johnsongrass plant response rating
reading: 5

molecule: Fc1cccc(Oc2ncc(Cl)cn2)c1-c1cc(C(F)(F)F)no1 [Compound 228]
measured on: johnsongrass (Sorghum halepense)
measured endpoint: Johnsongrass plant response rating
reading: 10

molecule: Cc1cc(-c2ccccc2Oc2ncc(Cl)cn2)no1 [Compound 60]
measured on: johnsongrass (Sorghum halepense)
measured endpoint: Johnsongrass plant response rating
reading: 0

molecule: FC(Cl)(Cl)c1cc(-c2ccccc2Oc2ncc(Cl)cn2)no1 [Compound 198]
measured on: johnsongrass (Sorghum halepense)
measured endpoint: Johnsongrass plant response rating
reading: 20

molecule: FC(F)c1cc(-c2ccccc2Oc2ncc(Br)cn2)on1 [Compound 212]
measured on: johnsongrass (Sorghum halepense)
measured endpoint: Johnsongrass plant response rating
reading: 5

molecule: FC(F)(F)c1cc(-c2c(Br)cccc2Oc2ncc(Cl)cn2)no1 [Compound 170]
measured on: johnsongrass (Sorghum halepense)
measured endpoint: Johnsongrass plant response rating
reading: 0

molecule: Clc1cnc(Oc2ccccc2-c2cc(C3CC3)on2)nc1 [Compound 183]
measured on: johnsongrass (Sorghum halepense)
measured endpoint: Johnsongrass plant response rating
reading: 5

molecule: FC(F)(F)c1cc(-c2c(I)cccc2Oc2ncc(Cl)cn2)no1 [Compound 156]
measured on: johnsongrass (Sorghum halepense)
measured endpoint: Johnsongrass plant response rating
reading: 5

molecule: FC(F)(Br)c1cc(-c2ccccc2Oc2ncc(Cl)cn2)no1 [Compound 162]
measured on: johnsongrass (Sorghum halepense)
measured endpoint: Johnsongrass plant response rating
reading: 5

molecule: Clc1cnc(Oc2ccccc2-c2ccon2)nc1 [Compound 185]
measured on: johnsongrass (Sorghum halepense)
measured endpoint: Johnsongrass plant response rating
reading: 0

molecule: FC(F)(F)c1cc(-c2ccccc2Oc2ncc(Cl)cn2)ncn1 [Compound 54]
measured on: johnsongrass (Sorghum halepense)
measured endpoint: Johnsongrass plant response rating
reading: 0

* * *

# Tested on: small-flower umbrella sedge (Cyperus difformis)
# assay notes: Test D flooded paddy test plant response
# Format: in vivo
# stated conditions: Flood (flooded paddy test), 31 g ai/ha; visual rating on scale 0 to 100 (0 no effect, 100 complete control), 13 to 15 days
measured endpoint: Plant response rating, Sedge, Umbrella

compound: N#Cc1cccc(Oc2ncc(Cl)cn2)c1-c1cc(C(F)F)on1 [Compound 180]
measured endpoint: Plant response rating, Sedge, Umbrella
reading: 0
//
compound: FCc1cc(-c2ccccc2Oc2ncc(Cl)cn2)no1 [Compound 32]
measured endpoint: Plant response rating, Sedge, Umbrella
reading: 0
//
compound: Fc1cccc(Oc2ncc(Br)cn2)c1-c1cc(C(F)F)no1 [Compound 145]
measured endpoint: Plant response rating, Sedge, Umbrella
reading: 60

* * *

// Plant response rating, Pigweed lookup, one value per entry
# Test system: pigweed (Amaranthus retroflexus)
# assay notes: Test B pre-/postemergence plant response
# Type: in vivo
# stated conditions: Postemergence, 500 g ai/ha; 0 to 100 scale (0 no effect, 100 complete control)

smiles text: FC(F)(F)c1csc(-c2ccccc2Oc2ncc(I)cn2)n1
Plant response rating, Pigweed: 0
--
smiles text: Cn1cc(-c2ccccc2Oc2ncc(Cl)cn2)nn1
Plant response rating, Pigweed: 80
--
smiles text: Cn1ccnc1-c1ccccc1Oc1ncc(Br)cn1
Plant response rating, Pigweed: 0
--
smiles text: Cc1cc(-c2ccccc2Oc2ncc(Cl)cn2)no1
Plant response rating, Pigweed: 100
--
smiles text: Clc1cnc(Oc2ccccc2-c2nccc(Cl)n2)nc1
Plant response rating, Pigweed: 0
--
smiles text: Cn1ccc(-c2ccccc2Oc2ncc(Cl)cn2)n1
Plant response rating, Pigweed: 20
--
smiles text: FC(F)c1cc(-c2ccccc2Oc2ncc(Cl)cn2)ncn1
Plant response rating, Pigweed: 100
--
smiles text: Clc1cnc(Oc2ccccc2-c2cccs2)nc1
Plant response rating, Pigweed: 80
